- System: colistin resistant MCR (−) E. Coli strains
- assay_remarks: MIC, broth microdilution, compound alone
- Assay type: cell-based
- experimental_conditions: strain 6083672926, MCR (−)
Please go through the items and note down their MIC.
All answers are understood in µg/mL, so give the number only.

input: Give its MIC value. Item: CC(C)=CCc1c(OCCCCN(C)CCCN(C)C)ccc(C(=O)/C=C/c2ccc(OCCCCN(C)CCCN(C)C)cc2)c1O [LC098]
output: 12.5

input: Give its MIC value. Item: CC(C)=CCc1c(OCCN(C)CCCN(C)C)ccc(C(=O)/C=C/c2ccc(OCCN(C)CCCN(C)C)cc2)c1O [LC140]
output: 12.5

input: Give its MIC value. Item: CC[N+](CC)(CC)CCCCOc1ccc(/C=C/C(=O)c2ccc(OCCCC[N+](CC)(CC)CC)c(CC=C(C)C)c2O)cc1 [LC315]
output: 25

input: Give its MIC value. Item: CN(C)CCCN(CCCCOc1ccc(C2COc3c(ccc4c3C=CC(C)(C)O4)C2)c(OCCCCN(CCCN(C)C)CCCN(C)C)c1)CCCN(C)C (centres unmarked) [LC095]
output: 25

input: Give its MIC value. Item: CCN(CC)CCOc1ccc(/C=C/C(=O)c2ccc(OCCN(CC)CC)c(CC=C(C)C)c2O)cc1 [LC150]
output: 50

input: Give its MIC value. Item: CC(C)=CCc1c(OCCC[N+](C)(C)C)ccc(C(=O)/C=C/c2ccc(OCCC[N+](C)(C)C)cc2)c1O [LC312]
output: 12.5

input: Give its MIC value. Item: CCOC(=O)C(CCCNC(=N)N)NC(=O)COc1ccc(/C=C/C(=O)c2ccc(OCC(=O)NC(CCCNC(=N)N)C(=O)OCC)c(CC=C(C)C)c2O)cc1 (centres unmarked) [LC137]
output: 12.5

input: Give its MIC value. Item: Cc1cc(OCCCCN(Cc2ccccn2)Cc2ccccn2)cc(OCCCCN(Cc2ccccn2)Cc2ccccn2)c1.[Cl][Zn][Cl].[Cl][Zn][Cl] [Orc-DPA-Zn]
output: 50

input: Give its MIC value. Item: CN(C)CCCN(C)CCCCOc1ccc(C2COc3c(ccc4c3C=CC(C)(C)O4)C2)c(OCCCCN(C)CCCN(C)C)c1 (centres unmarked) [LC096]
output: 12.5

input: Give its MIC value. Item: CC(C)=CCc1c(OCCCC[n+]2ccccc2)ccc(C(=O)/C=C/c2ccc(OCCCC[n+]3ccccc3)cc2)c1O [LC365]
output: 3.125

input: Give its MIC value. Item: CC(C)=CCc1c(OCCCCN(CCCN(C)C)CCCN(C)C)ccc(C(=O)/C=C/c2ccc(OCCCCN(CCCN(C)C)CCCN(C)C)cc2)c1O [LC097]
output: 25

input: Give its MIC value. Item: COC(=O)C(CCCNC(=N)N)NC(=O)COc1ccc(/C=C/C(=O)c2ccc(OCC(=O)NC(CCCNC(=N)N)C(=O)OC)c(CC=C(C)C)c2O)cc1 (centres unmarked) [LC101]
output: 25

input: Give its MIC value. Item: CC(C)=CCc1c(OCCCC[n+]2ccn(C)c2)ccc(C(=O)/C=C/c2ccc(OCCCC[n+]3ccn(C)c3)cc2)c1O [LC350]
output: 3.125

input: Give its MIC value. Item: CC(C)=CCc1c(OCCCCC[N+](C)(C)C)ccc(C(=O)/C=C/c2ccc(OCCCCC[N+](C)(C)C)cc2)c1O [LC311]
output: 3.125

input: Give its MIC value. Item: CC(C)=CCc1c(OCCNCCN)ccc(C(=O)/C=C/c2ccc(OCCNCCN)cc2)c1O [LC143]
output: 12.5

input: Give its MIC value. Item: CC1(C)C=Cc2c(ccc3c2OCC(c2ccc(OCCCC[n+]4ccccc4)cc2OCCCC[n+]2ccccc2)C3)O1 (centres unmarked) [LC370]
output: 25

Data origin: patent US12473250B2
